- protocol-notes: recombinant barcode read abundance after kanamycin selection (control-corrected) (log10(CPM+1)); higher = more efficient recombination; sequences stand for … in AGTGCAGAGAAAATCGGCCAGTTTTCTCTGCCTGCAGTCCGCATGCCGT…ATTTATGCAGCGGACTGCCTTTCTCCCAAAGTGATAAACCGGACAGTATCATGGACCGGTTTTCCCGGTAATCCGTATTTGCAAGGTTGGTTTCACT; site = the 11-nt target
metric: recombinant barcode read abundance (log10)
// keep it numeric: no unit symbol after the value

Answered examples (3):
• GAGCCCATCTGGGTTCTAACCTGTTGCCTAG [GAGCCCACTAG_LTGcore_TC_RTGcore_CT] (site GAGCCCACTAG) (LTG core: TC, RTG core: CT) = 0.102
• AAACATGACTGGGTTCTAACCTGTTGCCTAG [AAACATGCTAG_LTGcore_AC_RTGcore_CT] (site AAACATGCTAG) (LTG core: AC, RTG core: CT) = 0.0862
• GAGTCCACTTGGGTTCTAACCTGTTGCGTTG [GAGTCCACTAC_LTGcore_CT_RTGcore_CA] (site GAGTCCACTAC) (LTG core: CT, RTG core: CA) = 0

Give a short answer stating reported recombinant barcode read abundance (log10) for TGATACCGGTGGGTTCTAACCTGTTGCGTAG [TGATACCCTAC_LTGcore_GG_RTGcore_CT] (site TGATACCCTAC) (LTG core: GG, RTG core: CT) .
0.108

Give a short answer stating reported recombinant barcode read abundance (log10) for TTATAAAAGTGGGTTCTAACCTGTTGCCTCT [TTATAAACTAG_LTGcore_AG_RTGcore_AG] (site TTATAAACTAG) (LTG core: AG, RTG core: AG) .
0.0267
